- TGT: ScHof1
- EXPERIMENTAL_PROTOCOL: SPOT peptide array binding signal intensity (averaged, normalized) (arbitrary units (background-subtracted, floor 0; scale differs between SH3 domains)); higher = stronger binding of the SH3 domain to the peptide
Binary call on SPOT peptide array binding signal intensity: condition met from 2 upward, condition not met beneath that.

The following binders have reported results that may help.
{"BINDER": "FPGKKSPRLPHRNKK", "ASSIGNED_CATEGORY": "condition not met"}
{"BINDER": "KRKRFNLLLPKPYLT", "ASSIGNED_CATEGORY": "condition not met"}
{"BINDER": "VNIPSPSSSPPPIPK", "ASSIGNED_CATEGORY": "condition not met"}
{"BINDER": "FYHRPAPKPPVTKKV", "ASSIGNED_CATEGORY": "condition not met"}
{"BINDER": "SNRRPVPRRPSQPLN", "ASSIGNED_CATEGORY": "condition not met"}

## Input Kindly determine if SPOT peptide array binding signal intensity recorded for `MSPLGAPPPPPHKDH` is above or exactly 2.
## Output condition not met

## Input Kindly determine if SPOT peptide array binding signal intensity recorded for `PPIPNAPLSPAPAVP` is above or exactly 2.
## Output condition not met

## Input Kindly determine if SPOT peptide array binding signal intensity recorded for `RKRAPTPPAPSRSEK` is above or exactly 2.
## Output condition not met
